target: VIM-2 (Escherichia coli); assay: β-lactamase enzyme inhibition, VIM-2; details: substrate Nitrocefin 100 μM, 486 nm; read-out: Class B VIM-2 IC50
assay_metric: IC50

In: Identify measured IC50 corresponding to NCCNC1CC(CC(=O)N[C@H]2Cc3cccc(C(=O)O)c3OB2O)C1 (stereo partly shown)
Out: < 100 nM

In: Identify measured IC50 corresponding to NCC1CCC(CC(=O)N[C@H]2Cc3cccc(C(=O)O)c3OB2O)(C[N+](=O)[O-])CC1 (stereo partly shown)
Out: 1000 to 10000 nM

In: Identify measured IC50 corresponding to NCC1CCC(=CC(=O)N[C@H]2Cc3cccc(C(=O)O)c3OB2O)CC1 (stereo partly shown)
Out: 1000 to 10000 nM

In: Identify measured IC50 corresponding to NCCNC1CCC(O)(CC(=O)N[C@H]2Cc3cccc(C(=O)O)c3OB2O)CC1 (stereo partly shown)
Out: < 100 nM

In: Identify measured IC50 corresponding to CN(C)C[C@H]1CC[C@H](CC(=O)N(C)[C@H]2Cc3cccc(C(=O)O)c3OB2O)CC1
Out: 1000 to 10000 nM

In: Identify measured IC50 corresponding to O=C(C[C@H]1CC[C@@H](N2CCNCC2)CC1)N[C@H]1Cc2cccc(C(=O)O)c2OB1O
Out: 1000 to 10000 nM

In: Identify measured IC50 corresponding to NC1CN(C2CCC(CC(=O)N[C@H]3Cc4cccc(C(=O)O)c4OB3O)CC2)C1 (stereo partly shown)
Out: 100 to 1000 nM

In: Identify measured IC50 corresponding to O=C(CC1CCC(N2CCOCC2)CC1)N[C@H]1Cc2cccc(C(=O)O)c2OB1O (stereo partly shown)
Out: < 100 nM

In: Identify measured IC50 corresponding to NC[C@H]1CC[C@H](CC(=O)N[C@H]2Cc3cccc(C(=O)O)c3OB2O)CC1
Out: 1000 to 10000 nM

In: Identify measured IC50 corresponding to CSCCN[C@H]1CC[C@H](CC(=O)N[C@H]2Cc3cccc(C(=O)O)c3OB2O)CC1
Out: 1000 to 10000 nM

In: Identify measured IC50 corresponding to NC[C@H](N)C(=O)N[C@H]1CC[C@H](CC(=O)N[C@H]2Cc3cccc(C(=O)O)c3OB2O)CC1
Out: 100 to 1000 nM

In: Identify measured IC50 corresponding to N=C(N)N[C@H]1CC[C@H](CC(=O)N[C@H]2Cc3cccc(C(=O)O)c3OB2O)CC1
Out: 100 to 1000 nM

In: Identify measured IC50 corresponding to O=C(O)CN[C@H]1CC[C@H](CC(=O)N[C@H]2Cc3cccc(C(=O)O)c3OB2O)CC1
Out: 1000 to 10000 nM

In: Identify measured IC50 corresponding to N[C@H]1CC[C@@H](CC(=O)N[C@H]2Cc3cccc(C(=O)O)c3OB2O)CC1
Out: 1000 to 10000 nM

In: Identify measured IC50 corresponding to CN(CCN)[C@H]1CC[C@H](CC(=O)N[C@H]2Cc3cccc(C(=O)O)c3OB2O)CC1
Out: < 100 nM

In: Identify measured IC50 corresponding to O=C(C[C@H]1CC[C@H](NCCNCCO)CC1)N[C@H]1Cc2cccc(C(=O)O)c2OB1O
Out: < 100 nM

----------
biological target: UniProt Q5U7L7; experiment: β-lactamase enzyme inhibition, VIM-2; conditions: substrate Nitrocefin 100 μM, 486 nm; read-out: Class B VIM-2 IC50
pIC50: −log10 of the molar value.
assay_metric: pIC50

In: Identify measured pIC50 corresponding to O=C(C[C@H]1CC[C@H](NCCNc2ccccn2)CC1)N[C@H]1Cc2cccc(C(=O)O)c2OB1O
Out: 6.00 to 7.00

In: Identify measured pIC50 corresponding to NCCNC(=O)NCCN(C(=O)NCCN)C1CC(CC(=O)N[C@H]2Cc3cccc(C(=O)O)c3OB2O)C1 (some centres unmarked)
Out: 6.00 to 7.00

In: Identify measured pIC50 corresponding to N=C(N)N[C@H]1CC[C@H](CCC(=O)N[C@H]2Cc3cccc(C(=O)O)c3OB2O)CC1
Out: 6.00 to 7.00

In: Identify measured pIC50 corresponding to O=C(CC1CCC(O)CC1)N[C@H]1Cc2cccc(C(=O)O)c2OB1O (some centres unmarked)
Out: 5.00 to 6.00

In: Identify measured pIC50 corresponding to O=C(C[C@H]1CC[C@H](NCc2cccnc2)CC1)N[C@H]1Cc2cccc(C(=O)O)c2OB1O
Out: 6.00 to 7.00

In: Identify measured pIC50 corresponding to O=C(C[C@H]1CC[C@H](NCCO)CC1)N[C@H]1Cc2cccc(C(=O)O)c2OB1O
Out: 5.00 to 6.00

In: Identify measured pIC50 corresponding to N[C@H]1CC(CC(=O)N[C@H]2Cc3cccc(C(=O)O)c3OB2O)C[C@@H]1N
Out: 6.00 to 7.00

In: Identify measured pIC50 corresponding to COC(=O)NCCN[C@H]1CC[C@H](CC(=O)N[C@H]2Cc3cccc(C(=O)O)c3OB2O)CC1
Out: 6.00 to 7.00

----------
Would you mind telling me the reported IC50 of each entry?
molecular target: KPC-2 (Klebsiella pneumoniae, UniProt Q9F663); experiment: β-lactamase enzyme inhibition, KPC-2; settings: substrate imipenem, 300 nm; read-out: Class A KPC-2 IC50

In: Identify measured IC50 corresponding to CN(C)CCN[C@H]1CC[C@H](CC(=O)N[C@H]2Cc3cccc(C(=O)O)c3OB2O)CC1 [Example 79]
Out: < 100 nM

In: Identify measured IC50 corresponding to O=C(C[C@H]1CC[C@H](N2CCNCC2)CC1)N[C@H]1Cc2cccc(C(=O)O)c2OB1O [Example 16]
Out: < 100 nM

In: Identify measured IC50 corresponding to CN(CCN)[C@H]1CC[C@H](CC(=O)N[C@H]2Cc3cccc(C(=O)O)c3OB2O)CC1 [Example 63]
Out: < 100 nM

In: Identify measured IC50 corresponding to O=C(C[C@H]1CC[C@H](NCc2nccs2)CC1)N[C@H]1Cc2cccc(C(=O)O)c2OB1O [Example 39]
Out: < 100 nM

In: Identify measured IC50 corresponding to CN1CCN([C@H]2CC[C@H](CC(=O)N[C@H]3Cc4cccc(C(=O)O)c4OB3O)CC2)C1=N [Example 52]
Out: < 100 nM

In: Identify measured IC50 corresponding to NCC1CCC(=CC(=O)N[C@H]2Cc3cccc(C(=O)O)c3OB2O)CC1 (some centres unmarked) [Example 11]
Out: 1000 to 10000 nM

In: Identify measured IC50 corresponding to N=C(N)NCCN[C@H]1CC[C@H](CC(=O)N[C@H]2Cc3cccc(C(=O)O)c3OB2O)CC1 [Example 25]
Out: < 100 nM

In: Identify measured IC50 corresponding to NCCN[C@H]1CC[C@@H](CC(=O)N[C@H]2Cc3cccc(C(=O)O)c3OB2O)CC1 [Example 46]
Out: < 100 nM

----------
molecular target: SHV-5 (Klebsiella pneumoniae); construct: made in house; host or cells: E. coli BL21(DE3); test: β-lactamase enzyme inhibition, SHV-5; assay type: biochemical
assay_metric: IC50

In: Identify measured IC50 corresponding to COC(=O)NCCN[C@H]1CC[C@H](CC(=O)N[C@H]2Cc3cccc(C(=O)O)c3OB2O)CC1
Out: < 100 nM

In: Identify measured IC50 corresponding to NC1CC(CC(=O)N[C@H]2Cc3cccc(C(=O)O)c3OB2O)C1 (some centres unmarked)
Out: 100 to 1000 nM

In: Identify measured IC50 corresponding to N=C(N)N[C@H]1CC[C@H](CC(=O)N[C@H]2Cc3cccc(C(=O)O)c3OB2O)CC1
Out: < 100 nM

In: Identify measured IC50 corresponding to CN(C)[C@H]1CC[C@H](CC(=O)N[C@H]2Cc3cccc(C(=O)O)c3OB2O)CC1
Out: < 100 nM

In: Identify measured IC50 corresponding to NCCNC[C@H]1CC[C@H](CC(=O)N[C@H]2Cc3cccc(C(=O)O)c3OB2O)CC1
Out: < 100 nM

In: Identify measured IC50 corresponding to NC[C@H]1CC[C@H](C(=O)N[C@H]2Cc3cccc(C(=O)O)c3OB2O)CC1
Out: 1000 to 10000 nM

In: Identify measured IC50 corresponding to N=C(N)NC[C@H]1CC[C@H](CC(=O)N[C@H]2Cc3cccc(C(=O)O)c3OB2O)CC1
Out: < 100 nM

In: Identify measured IC50 corresponding to N[C@@H](C(=O)N[C@H]1Cc2cccc(C(=O)O)c2OB1O)C1CCCCC1
Out: 100 to 1000 nM
